- systemTested: glutathione-S-transferase (GST) tagged LXRalpha LBD (ligand binding domain) (Homo sapiens)
- Construct: purchased Invitrogen pv4655
- Sequence (Q13133 209-447 limits assumed): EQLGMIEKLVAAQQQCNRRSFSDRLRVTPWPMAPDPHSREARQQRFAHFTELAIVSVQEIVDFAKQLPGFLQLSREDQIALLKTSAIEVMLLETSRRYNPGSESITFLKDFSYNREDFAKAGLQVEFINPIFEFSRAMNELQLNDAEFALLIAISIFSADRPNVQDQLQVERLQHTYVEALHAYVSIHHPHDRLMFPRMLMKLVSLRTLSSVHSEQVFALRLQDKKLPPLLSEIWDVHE
- assayProcedure: LanthaScreen TR-FRET Liver X Receptor Coactivator Assay, co-activator recruitment to LXRalpha LBD
- Format: biochemical
- reportedConditions: efficacy at max dose, in relation to reference dual agonist T0901317; read-out: LXR alpha Activity @ max dose (%)
observable: Emax (%)

CN(C)C(=O)c1ccc(N2CCC(CC3CCN(C(=O)[C@](O)(c4ccccc4F)C(F)(F)F)CC3)CC2)cc1Cl: 21
CCOc1cccc([C@@](O)(C(=O)N2CCC(C)(CC3CCN(c4ccc(C(=O)N(C)C)c(Cl)c4)CC3)CC2)C(F)(F)F)c1: 0
CN(C)C(=O)c1ccc(N2CCC(CC3CCN(C(=O)[C@](O)(c4cccc(Br)c4)C(F)(F)F)CC3)CC2)cc1: 23
CNC(=O)c1ccc(N2CCC(CC3CCN(C(=O)[C@](O)(c4cc(Cl)cc(Cl)c4)C(F)(F)F)CC3)CC2)nc1Cl: 14

[P] COc1cc(F)cc([C@@](O)(C(=O)N2CCC(CC3CCN(c4ccc(C(N)=O)c(Cl)c4)CC3)CC2)C(F)(F)F)c1
[Q] COc1cccc([C@@](O)(C(=O)N2CCC(CC3CCN(c4ccc(C(=O)N(C)C)cc4)CC3)CC2)C(F)(F)F)c1
Of the two listed items, which has the higher Emax? First: P Second: Q Provide the label of your selected option as the answer. P
(P: 20%, Q: 4%)

---

- systemTested: glutathione-S-transferase (GST) tagged LXRalpha LBD (ligand binding domain) (Homo sapiens, UniProt Q13133)
- Construct: purchased Invitrogen pv4655
- assayProcedure: LanthaScreen TR-FRET Liver X Receptor Coactivator Assay, co-activator recruitment to LXRalpha LBD
- Type: biochemical
- reportedConditions: read-out: LXR alpha Activity @ max dose (%)
observable: Emax (%)
Give a bare numeral; the unit % is implied.

// below: answered compounds
CN(C)C(=O)c1ccc(N2CCC(CC3CCN(C(=O)C(O)(c4ccccc4)C4CCCC4)CC3)CC2)nc1Cl (centres unmarked): 10
CN(C)C(=O)c1ccc(N2CCC(CC3CCN(C(=O)C(O)(c4ccccn4)C4CC4)CC3)CC2)cc1Cl (centres unmarked): 11
Cc1nc(N2CCC(CC3CCN(C(=O)C(O)(c4cccc(Cl)c4)C(F)(F)F)CC3)CC2)ccc1C(=O)N(C)C (centres unmarked): 24

What Emax value was documented for this compound, CN(C)C(=O)c1ccc(N2CCC(CC3CCN(C(=O)C(O)(c4ccccc4)c4ccsc4)CC3)CC2)nc1Cl (centres unmarked) ? 5

What Emax value was documented for this compound, CN(C)C(=O)c1ccc(N2CCC(CC3CCN(C(=O)C(O)(c4ccccc4)C4CC4)CC3)CC2)nc1Cl (centres unmarked) ? 20

What Emax value was documented for this compound, CN(C)C(=O)c1ccc(N2CCC(CC3CCN(C(=O)[C@](O)(c4ccccc4)C4CC4)CC3)CC2)cc1Cl ? 12

What Emax value was documented for this compound, CN(C)C(=O)c1ccc(N2CCC(CC3CCN(C(=O)C(O)(c4ccccc4)C4CCC4)CC3)CC2)nc1Cl (centres unmarked) ? 38

---

- systemTested: glutathione-S-transferase (GST) tagged LXRalpha LBD (ligand binding domain) (Homo sapiens)
- Construct: purchased Invitrogen pv4655
- assayProcedure: LanthaScreen TR-FRET Liver X Receptor Coactivator Assay, co-activator recruitment to LXRalpha LBD
- Format: biochemical
- reportedConditions: efficacy at max dose, in relation to reference dual agonist T0901317; read-out: LXR alpha Activity @ max dose (%)
observable: Emax (%)

// below: answered compounds
CN(C)C(=O)c1ccc(N2CCC(CC3CCCN(C(=O)[C@](O)(c4ccccc4)C(F)(F)F)CC3)CC2)cc1Cl (some centres unmarked): 12
COc1cc(F)cc([C@@](O)(C(=O)N2CCC(CC3CCN(c4ccc(C(=O)N(C)C)cc4)CC3)CC2)C(F)(F)F)c1: 15
COc1cccc([C@@](O)(C(=O)N2CCC(CC3CCN(c4ccc(C(=O)N(C)C)c(Cl)c4)CC3)CC2)C(F)F)c1: 0
CNC(=O)c1ccc(N2CCC(CC3CCN(C(=O)C(O)(c4cc(F)cc(F)c4)C(F)(F)F)CC3)CC2)nc1Cl (centres unmarked): 66
COc1cccc([C@@](O)(C(=O)N2CCC(CC3(C)CCN(c4ccc(C(=O)N(C)C)c(C)n4)CC3)CC2)C(F)(F)F)c1: 8

[A] CS(=O)(=O)c1cccc(N2CCC(CC3CCN(C(=O)[C@](O)(c4ccccc4)C(F)(F)F)CC3)CC2)c1
[B] CN(C)C(=O)c1ccc(N2CCC(CC3CCN(C(=O)[C@](O)(c4cccc(N(C)C)c4)C(F)(F)F)CC3)CC2)cc1Cl
[C] COc1cccc([C@@](O)(C(=O)N2CCC(CC3CCN(c4ccc(C(=O)N(C)C)c(C5CC5)n4)CC3)CC2)C(F)(F)F)c1
[D] CC(C)Oc1cccc([C@@](O)(C(=O)N2CCC(CC3CCN(c4ccc(C(=O)N(C)C)c(Cl)n4)CC3)CC2)C(F)(F)F)c1
// smallest Emax at index 0, largest at the end Present the labels in the sequence the task asks for. B, C, D, A

[A] CC(C)C(O)(C(=O)N1CCC(CC2CCN(c3ccc(C(=O)N(C)C)c(Cl)n3)CC2)CC1)C(F)(F)F (centres unmarked)
[B] CCc1cccc([C@@](O)(C(=O)N2CC(CC3CCN(c4ccc(C(=O)N(C)C)c(Cl)n4)CC3)C2)C(F)(F)F)c1
[C] CN(C)C(=O)c1ccc(N2CCC(CC3CCN(C(=O)[C@@](N)(c4ccccc4)C(F)(F)F)CC3)CC2)nc1Cl
// smallest Emax at index 0, largest at the end Present the labels in the sequence the task asks for. C, B, A

[1] CN(C)C(=O)c1ccc(N2CCC(CC3CCN(C(=O)[C@](O)(c4cccc(F)c4)C(F)(F)F)CC3)CC2)cc1Cl
[2] CCOc1cccc([C@@](O)(C(=O)N2CCC(CC3CCN(c4ccc(C(=O)N(C)C)c(Cl)c4)CC3)CC2)C(F)F)c1
Of the two listed items, which has the higher Emax? First: 1 Second: 2 Provide the label of your selected option as the answer. 1

[I] CN(C)C(=O)c1ccc(N2CCC(CC3(C)CCN(C(=O)[C@](O)(c4cc(F)cc(Cl)c4)C(F)(F)F)CC3)CC2)nc1Cl
[II] CN(C)C(=O)c1ccc(N2CCC(CC3CCN(C(=O)OC(C)(C)C)CC3)CC2)cc1Cl
[III] COc1cccc([C@@](O)(C(=O)N2CCC(C)(CC3CCN(c4ccc(C(=O)N(C)C)c(Cl)n4)CC3)CC2)C(F)(F)F)c1
[IV] Cc1cccc(C(O)(C(=O)N2CCC(CC3CCN(c4ccc(C(=O)N(C)C)c(C)n4)CC3)CC2)C(F)(F)F)c1 (centres unmarked)
[V] CN(C)C(=O)c1ccc(N2CCC(CC3CCN(C(=O)C(O)(c4cccc5c4CCC5)C(F)(F)F)CC3)CC2)cc1Cl (centres unmarked)
Please rank these compounds by Emax in descending order. Present the labels in the sequence the task asks for. I, II, IV, III, V

---

- systemTested: glutathione-S-transferase (GST) tagged LXRbeta LBD (ligand binding domain) (Homo sapiens, UniProt P55055)
- Construct: purchased Invitrogen pv4658.pps
- Sequence (P55055 222-460 limits assumed): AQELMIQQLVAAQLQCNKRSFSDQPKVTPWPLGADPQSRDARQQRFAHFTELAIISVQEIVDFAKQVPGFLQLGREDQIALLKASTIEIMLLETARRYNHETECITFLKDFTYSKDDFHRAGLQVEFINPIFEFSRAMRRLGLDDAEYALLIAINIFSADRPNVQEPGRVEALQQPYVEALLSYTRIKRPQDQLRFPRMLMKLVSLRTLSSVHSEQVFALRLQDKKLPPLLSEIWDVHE
- assayProcedure: LanthaScreen TR-FRET Liver X Receptor Coactivator Assay, co-activator recruitment to LXRbeta LBD
- Format: biochemical
- reportedConditions: potency (Inflection Point, IP), co-activator recruitment to LXRbeta LBD, in relation to T0901317; read-out: LXR beta IP
observable: EC50 (nM)

COc1cccc([C@@](O)(C(=O)N2CC(CC3CCN(c4ccc(C(=O)N(C)C)c(C)n4)CC3)C2)C(F)(F)F)c1: 136

[I] CC(C)Oc1cccc([C@@](O)(C(=O)N2CCC(C)(CC3CCN(c4ccc(C(=O)N(C)C)c(Cl)n4)CC3)CC2)C(F)(F)F)c1
[II] CN(C)C(=O)c1ccc(N2CCC(CC3CCN(C(=O)C(F)(F)c4ccccc4)CC3)CC2)nc1Cl
[III] CN(C(=O)c1ccc(N2CCC(CC3CCN(C(=O)[C@](O)(c4ccccc4)C(F)(F)F)CC3)CC2)cc1Cl)C1CC1
[IV] CN(C)C(=O)c1ccc(N2CCC(CC3CCN(C(=O)[C@](O)(c4cccc(C(F)(F)F)c4)C(F)(F)F)CC3)CC2)cc1
[V] CN(C)C(=O)c1ccc(N2CCC(CC3CCN(C(=O)C(O)(c4cccs4)C(F)(F)F)CC3)CC2)cc1Cl (stereo not shown)
Please rank these molecules by EC50 in descending order. Present the labels in the sequence the task asks for. II, IV, III, V, I
